Source listed as patent US11999727B2.

Overview of recorded IC50 for various molecules
Molecular target: PRMT5 (Homo sapiens)
Construct: purchased Viva (custom protein)
Sequence (O14744 whole entry): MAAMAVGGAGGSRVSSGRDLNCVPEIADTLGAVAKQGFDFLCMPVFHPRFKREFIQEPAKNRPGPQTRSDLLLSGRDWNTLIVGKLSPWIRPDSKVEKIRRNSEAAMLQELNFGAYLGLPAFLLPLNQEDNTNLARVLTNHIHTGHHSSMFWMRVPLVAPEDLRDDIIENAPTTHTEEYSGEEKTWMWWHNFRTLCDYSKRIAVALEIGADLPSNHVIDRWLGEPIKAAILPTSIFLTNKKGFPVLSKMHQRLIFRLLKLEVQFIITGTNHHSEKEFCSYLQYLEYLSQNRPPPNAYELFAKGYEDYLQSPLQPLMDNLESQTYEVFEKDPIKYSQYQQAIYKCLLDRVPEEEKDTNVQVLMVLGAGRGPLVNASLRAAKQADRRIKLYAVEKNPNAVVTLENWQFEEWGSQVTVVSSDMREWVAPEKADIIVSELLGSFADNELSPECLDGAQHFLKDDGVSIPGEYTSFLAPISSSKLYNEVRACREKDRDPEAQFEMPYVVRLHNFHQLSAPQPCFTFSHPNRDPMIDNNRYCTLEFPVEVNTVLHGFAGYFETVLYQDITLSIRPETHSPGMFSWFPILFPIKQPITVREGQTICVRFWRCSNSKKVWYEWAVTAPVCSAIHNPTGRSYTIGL
Sequence (Q9BQA1 whole entry partner): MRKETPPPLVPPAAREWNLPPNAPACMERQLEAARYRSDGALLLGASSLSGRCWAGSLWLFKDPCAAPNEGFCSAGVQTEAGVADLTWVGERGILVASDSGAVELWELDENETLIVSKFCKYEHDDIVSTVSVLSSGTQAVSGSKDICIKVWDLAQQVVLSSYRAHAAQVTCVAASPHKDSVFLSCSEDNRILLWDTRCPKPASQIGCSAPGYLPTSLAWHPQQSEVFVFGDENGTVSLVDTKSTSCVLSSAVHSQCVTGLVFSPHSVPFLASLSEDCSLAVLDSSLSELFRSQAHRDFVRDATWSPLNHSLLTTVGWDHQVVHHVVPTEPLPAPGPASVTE
Experiment: PRMT5 biochemical IC50 assay with SAM as cofactor
Conditions: PRMT5, SAM as cofactor; read-out: SAM IC50

>  <molecule>
CCc1cc(NC(=O)C(=O)N2C[C@H](C)CC[C@H]2c2cc3[nH]ncc3s2)cnc1N (single isomer, unassigned) [Compound 955]

>  <IC50>
50 to 500 nM

$$$$
>  <molecule>
Cc1cc(NC(=O)C(=O)N2C[C@H](C)CC[C@H]2c2cncnc2)cnc1N (racemic) [Compound 109]

>  <IC50>
50 to 500 nM

$$$$
>  <molecule>
NC(=O)c1cncc(NC(=O)C(=O)N2C[C@@H]3CC[C@@H](C3)[C@@H]2c2ccccc2)c1 (single isomer, unassigned) [Compound 205]

>  <IC50>
50 to 500 nM

$$$$
>  <molecule>
COc1ncc(NC(=O)C(=O)N2C[C@H](C)CC[C@H]2c2ccc3c(c2)CC(=O)N3)cc1C(N)=O (single isomer, unassigned) [Compound 453]

>  <IC50>
> 500 nM

$$$$
>  <molecule>
CCc1cc(NC(=O)C(=O)N2C[C@@H](C)CC[C@@H]2c2ccc(OCCN(C)C)cc2)cnc1N [Compound 1292]

>  <IC50>
50 to 500 nM

$$$$

Requested read-out: IC50. Entry: Cc1cc(NC(=O)C(=O)N2C[C@H](C)[C@@H](CC(C)C)C[C@H]2c2ccc3scnc3c2)cnc1N (single isomer, unassigned) [Compound 1210]
50 to 500 nM

Lookup C[C@H]1CC[C@H](c2ccc3c(c2)OCCN3)N(C(=O)C(=O)Nc2cncc(C(N)=O)c2)C1 (single isomer, unassigned) [Compound 598]
< 50 nM

Lookup Cc1cc(NC(=O)C(=O)N2C[C@H](C)CC[C@H]2[C@H]2CC[C@@H](O)CC2)cnc1N (single isomer, unassigned) [Compound 436]
50 to 500 nM

Lookup Cc1cc(NC(=O)C(=O)N2CCCCC2C2CCCCC2)cnc1N (centres unmarked) [Compound 30]
50 to 500 nM

Lookup C[C@@H]1CC[C@@H](c2cncc(F)c2)N(C(=O)C(=O)Nc2cncc(C(N)=O)c2)C1 (racemic) [Compound 248]
> 500 nM

Lookup Cc1ccc([C@@H]2CC(F)(F)[C@@H](C)CN2C(=O)C(=O)Nc2cnc(N)c(C)c2)cn1 (single isomer, unassigned) [Compound 944]
> 500 nM

Lookup Cc1c(NC(=O)C(=O)N2C[C@H](C)CC[C@H]2c2ccccc2)cnc(N)c1C (single isomer, unassigned) [Compound 367]
> 500 nM

Lookup C[C@H]1CC[C@H](c2cccc(N(C)C)c2)N(C(=O)C(=O)Nc2cncc(C(N)=O)c2)C1 (single isomer, unassigned) [Compound 374]
> 500 nM

Lookup CCc1cc(NC(=O)C(=O)N2C[C@@H](C)CC[C@@H]2c2ccc3sc([C@@H]4CN(C)CCO4)nc3c2)cnc1N [Compound 1134]
50 to 500 nM
